Give measured TGI for each item. Keep answers brief.
Test system: OVCAR-3 ovarian
Assay: NCI tumour cell line growth inhibition, 48 h

# example entries with known answers
CN1CCc2c(sc3ncn(C)c(=N)c23)C1 ... > 100 µM
O=C(c1cccs1)N(C(=O)N1CCN(c2ccccc2)CC1)S(=O)(=O)c1ccccc1 ... > 100 µM
S=c1[nH]c(=S)c2nnn(-c3ccccc3)c2[nH]1 ... > 100 µM
Cc1ccc(C)c(N=C2NC(=O)C(CC(=O)Nc3ccc(Cl)cc3Cl)S2)c1 (stereo unspecified) ... > 100 µM

For each of the compounds below, note its TGI.
1. CNC(=S)N=Nc1c(O)n(CN2CCOCC2)c2ccc([N+](=O)[O-])cc12
2. CCOC(=O)CO/N=C1/C(c2c(O)[nH]c3ccccc23)=Nc2ccccc21

# output
1. 34.5 µM
2. 55 µM

* * *

Tested on: IGROV1 ovarian
Experiment: NCI tumour cell line growth inhibition, 48 h
experimental-readout: TGI

O=Cc1ccc2c(c1-c1c(C=O)ccc3c1OCO3)OCO2 ... > 100 µM
O=C(N[C@@H](c1ccccc1)[C@@H](O)C(=O)OCc1ccc([N+](=O)[O-])cc1)c1ccccc1 ... > 100 µM

# context switch: different compound, same TGI
# input Fill in TGI for record O=S(=O)(c1ccccc1)C1CN2OC1(S(=O)(=O)c1ccccc1)CC2c1ccc(Br)cc1 (stereo not drawn)
# output > 100 µM

* * *

System: A549 NSCLC
Test: NCI tumour cell line growth inhibition, 48 h
experimental-readout: TGI

CNC(=S)N=Nc1c(O)n(CN2CCOCC2)c2ccc([N+](=O)[O-])cc12 ... > 100 µM

For each of the molecules below, note its TGI.
1. C#CC(C)(C)OC(=O)C(=[N+]=[N-])C(C)=O
2. c1ccc(NN=C(c2ccccn2)c2ccccn2)nc1
3. CCOP(=O)(COCCn1ncc(=O)[nH]c1=O)OCC

# output
1: > 10 µM; 2: > 21 µM; 3: > 100 µM

* * *

Tested on: OVCAR-4 ovarian
Assay: NCI tumour cell line growth inhibition, 48 h; in the data active means GI50 below about 0.43 µM; inactive means the rest
Please answer using one outcome listed in active, inactive

// below: answered compounds
CC(C)(S)C(N)C(=O)O (stereo not given) ... inactive
CC(=O)[O][Ga]([Br])[O]C(C)=O ... inactive
COc1ccc(CCNC(=O)c2ccc(NC3=C(Cl)C(=O)N(Cc4ccccc4)C3=O)cc2)cc1OC ... inactive
COc1ccc(-c2ccc(-c3ccc(C(=N)N)s3)s2)cc1 ... active
CC[C@H]1CN2CCc3cc(OC)c(OC)cc3[C@@H]2C[C@@H]1C[C@H]1NCCc2c1[nH]c1ccc(O)cc21 ... active

# input Could you please tell me the result logged for "CCOC(=O)/C=C(/C)Sc1cc(O)c2ccccc2c1O" in this assay?
# output inactive

# input Could you please tell me the result logged for "COc1cc(C(=O)N2CCN(c3ncccn3)CC2)c(N)cc1OCc1ccccc1" in this assay?
# output inactive

* * *

Test system: OVCAR-5 ovarian
Experiment: NCI tumour cell line growth inhibition, 48 h
experimental-readout: TGI

Cc1cn(C2CC(O)C(CO[Si](C)(C)C(C)(C)C)OC2OC(C)C)c(=O)[nH]c1=O (stereo not drawn) ... > 100 µM

For each of the molecules below, note its TGI.
1. Cn1cc(C2=C(c3cccc(Br)c3)C(=O)NC2=O)c2ccccc21
2. O=C1NC(=NCCc2cccc(Cl)c2)S/C1=C\c1ccc2ncccc2c1

# output
1. > 25 µM
2. > 25 µM

* * *

System: CCRF-CEM leukemia
Assay: NCI tumour cell line growth inhibition, 48 h
Give measured GI50 for each item. Keep answers brief.

# example entries with known answers
CC(=O)Oc1ccccc1C(=O)Nc1ncc([N+](=O)[O-])s1 ... 2.14 µM
Cc1[nH]c(/C=C2\C(=O)Nc3ccccc32)c(C)c1CCC(=O)O ... 28.3 µM

# input Provide the reported GI50 (system: CCRF-CEM leukemia) for "NC(=O)c1cc(S(=O)(=O)Nc2nnc(-c3ccccc3)c(-c3ccccc3)n2)c(SCc2ccccc2)cc1Cl"
# output > 50.4 µM

* * *

Test system: 786-0 renal
Experiment: NCI tumour cell line growth inhibition, 48 h
experimental-readout: TGI

# example entries with known answers
Cc1[nH]c(/C=C2\C(=O)Nc3ccccc32)c(C)c1CCC(=O)O ... > 100 µM
COc1ccc2c(c1)nc1n2C(c2c(Cl)cccc2Cl)SC1 (stereo not drawn) ... > 100 µM

# context switch: different molecule, same TGI
# input Fill in TGI for record O=C(O/C=C\OC1CCCC1(c1ccccc1)c1ccccc1)c1ccccc1 (stereo not drawn)
# output 14 µM

* * *

System: SF-539 CNS
Assay: NCI tumour cell line growth inhibition, 48 h
experimental-readout: TGI

# example entries with known answers
Cc1ccc(-c2n[nH]c(=O)n2/N=C\c2ccc([N+](=O)[O-])cc2)cc1 ... > 100 µM
O=Cc1ccc2c(c1-c1c(C=O)ccc3c1OCO3)OCO2 ... > 100 µM

# context switch: different molecule, same TGI
# input Fill in TGI for record "Cc1cc(C)c2c(c1)C/C(=C\c1ccccc1C(=O)O)C2=O"
# output > 100 µM

* * *

Give measured TGI for each item. Keep answers brief.
Tested on: SNB-19 CNS
Assay: NCI tumour cell line growth inhibition, 48 h
Answers are plain numbers, in µM.

# example entries with known answers
CCn1sc2ccccc2c1=O ... 32.9
C=C1C(=O)OC2CC(C)C3(O)CCC(=O)C3(C)CC12 (configuration not stated) ... 61.4
c1ccc2nc3c(nc2c1)sc1ccccc13 ... 42.2
O=C(/C=C/c1ccc(OCc2cccc(Cl)c2)cc1)NO ... 60.7
CCOC(=O)C1(C/C=C/CBr)CCc2ccccc2C1=O (configuration not stated) ... 30.8
O=c1oc2ccccc2cc1-c1cn2ccccc2n1 ... 12.7

# context switch: different compound, same TGI
# input Fill in TGI for record "COc1ccc(-c2ccc(-c3ccc(C(=N)N)s3)s2)cc1"
# output 1.41

* * *

System: CAKI-1 renal
Assay: NCI tumour cell line growth inhibition, 48 h
Give measured TGI for each item. Keep answers brief.

# example entries with known answers
CN[C@@H](C)[C@@H](NC)c1ccccc1 ... > 100 µM
CCCCSC1=N/C(=C\c2ccco2)C(Cl)=N1 ... > 100 µM
Cc1cc(C)c(/C=C2\C(=O)Nc3ccc(NC(=O)CCCCCCC(=O)NO)cc32)[nH]1 ... > 100 µM
Cc1cc(S(=O)(=O)O)c(NC(=O)C(=O)Cc2cc(=O)oc3cc(O)ccc23)cc1Cl ... > 100 µM
COc1ccc(OC)c(C(Cc2ccnc3ccccc23)Cc2ccnc3ccccc23)c1 ... > 10 µM

For each of the molecules below, note its TGI.
1. O=C1/C(=C/c2cccc(Br)c2)Cc2ccccc21
2. COC(=O)/C=C/c1c(CC=C(C)C)ncn1C

# output
> 100 µM
> 100 µM

* * *

System: SW-620 colon
Test: NCI tumour cell line growth inhibition, 48 h
Give measured TGI for each item. Keep answers brief.
Answers are plain numbers, in µM.

COc1ccc(-n2c(C)cc(-c3ccccc3)c2C)cc1 ... 12.5

# context switch: different compound, same TGI
# input Fill in TGI for record "CC(C)N(C(=O)C1(O)c2ccccc2C=Cc2ccccc21)C(C)C"
# output 31.3

* * *

Test system: IGROV1 ovarian
Experiment: NCI tumour cell line growth inhibition, 48 h
experimental-readout: TGI

# example entries with known answers
COc1ccc2c(c1)nc1n2C(c2c(Cl)cccc2Cl)SC1 (stereo not drawn) ... > 100 µM
COc1ccc(-c2nc(-c3cc4c(ccc5ccccc54)oc3=O)cs2)cc1 ... > 100 µM

# input Fill in TGI for record COc1ccc(NC(=O)N(C)CC2(O)CCC(C(C)(C)C)CC2)cc1 (stereo not drawn)
# output > 100 µM

* * *

Test system: K-562 leukemia
Test: NCI tumour cell line growth inhibition, 48 h
Give measured TGI for each item. Keep answers brief.

Cc1c(O)c(OC2OC(CO)C(O)C(O)C2O)cc2c1CC[C@@H]1C2(C)C(=O)C[C@]2(C)[C@@H]([C@@](C)(O)C(=O)CCC(C)(C)O)[C@H](O)C[C@@]12C (stereo partly drawn) ... > 100 µM
CC1=CCC(C)=Nc2nc3ccccc3n21 ... > 100 µM
NC(=O)c1cc(S(=O)(=O)Nc2nnc(-c3ccccc3)c(-c3ccccc3)n2)c(SCc2ccccc2)cc1Cl ... > 100 µM
C/C(CC(=O)Nc1cccc(Cl)c1C)=N\NC(=O)c1ccncc1 ... > 100 µM

For each of the molecules below, note its TGI.
1. CCCCCCCCCCCCC/C=C/[C@@H](O)[C@H](COC1OC(CO)C(OC2OC(CO)C(O)C(OC3(C(=O)O)CC(O)C(NC(C)=O)C(C(O)C(O)CO)O3)C2O)C(O)C1O)N=[N+]=[N-] (stereo partly drawn)
2. CCC(C)C1NC(=O)C(NC(=O)c2c3[nH]c4c(C(=O)NC5C(=O)NC(C(C)CC)C(=O)N6CCCC6C(=O)N(C)CC(=O)N(C)C(C(C)C)C(=O)OC5C)ccc(C)c4oc-3c(C)c(=O)c2=O)C(C)OC(=O)C(C(C)C)N(C)C(=O)CN(C)C(=O)C2CCCN2C1=O (stereo not drawn)

# output
1. 60.6 µM
2. > 65 µM

For each of the molecules below, note its TGI.
1. Cn1c(=O)oc2cc(C(O)CN3CCN(Cc4ccccn4)CC3)c(Cl)cc21 (stereo not drawn)
2. COc1ccc(CC2c3cc(OC)c(OC)cc3CC[N+]2(C)C)cc1OC (stereo not drawn)

# output
> 100 µM
> 100 µM
